From: ChEMBL document CHEMBL5380871

# METHOD_NOTES: Inhibition of human recombinant kallikrein using Pro-Phe-Arg-AMC as substrate pretreated with compound followed by substrate addition incubated for 60 mins by multilabel plate reader method
ASSAY_METRIC: IC50

Param item = Cc1cc([C@H]2CN(c3cc(F)c4c(N)nncc4c3)CCN2c2cccc(F)c2)no1 ; retrieve measured IC50.
> 30 µM
